The reported measurements were obtained from patent US10723764B2.

Quick list: HL50 (μM), concentration at which 50% red blood cells are lysed per entry.
- System: human erythrocytes
- CONDITION_NOTES: human red blood cells; Table 6
Where no end group is shown, it is not given here.
MEASUREMENT_NAME: HL50 (μM), concentration at which 50% red blood cells are lysed (µM)

{"SUBSTANCE": "GFKDLLKGAAKALVKTVLF-NH2 [Ascaphin-8, reference compound]", "MEASURED_ON": "human erythrocytes", "READOUT_NUMBER": 45}
{"SUBSTANCE": "IWLTALKFLGKHAAKHLAKQQLSKL [Lycotoxin I, reference compound]", "MEASURED_ON": "human erythrocytes", "READOUT_NUMBER": 125}
{"SUBSTANCE": "FFGKVLKLIRKIF-NH2 [DASamP1]", "MEASURED_ON": "human erythrocytes", "READOUT_NUMBER": 25}
{"SUBSTANCE": "GLLGLLGSVVSHVVPAIVGHF-NH2 [Maculatin 1.3, reference compound]", "MEASURED_ON": "human erythrocytes", "READOUT_NUMBER": 25}
{"SUBSTANCE": "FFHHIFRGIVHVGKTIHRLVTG [Piscidin 1, reference compound]", "MEASURED_ON": "human erythrocytes", "READOUT_NUMBER": 20}
{"SUBSTANCE": "IKWKKLLRAAKRIL-NH2 [DASamP2]", "MEASURED_ON": "human erythrocytes", "READOUT_NUMBER": 75}
